Cited source for all entries: patent US20200165324A1

- TARGET_ENTITY: stabilized BG505 SOSIP construct MD39 (HIV isolate BG505)
- ASSAY_EXPLANATION: competition ELISA on MD39 vs 12A12
MEASURED_ENDPOINT: competition value
A bare number is all that is needed in reply.

Recorded competition value, per entry:
Briefly, competition value measured for NC-Cow2 (antibody) VH: KVQLRESGPSLVKPSQTLSLTCMVSGSSLSDKAVGWVRQAPGKALEWLGIISAGGNRGYNSGLRSRLTISKDNSKNEVSLRVRSVTTEDSATYFCGTVHQKTQRKPICPDGYSDDSTLRYYSRCSDRDCWRCTGTTYYDTCQCGTYTWIDTHELHVDAWGQGLLVTVSS VL: QAVLNQPSSVSGSLGQRVSITCSGSSSNVGNGYVSWYQLIPGSAPRTLIYGDTSRASGVPDRFSGSRSGNTATLTISSLQAEDEADYFCASAEDSSSNAVFGSGTTLTVL : 94

Briefly, competition value measured for NC-Cow4 (antibody) VH: KVQLRESGPSLVKPSQTLSLTCMVSGFSLNDEAVGWVRQAPGKALEWLGSIDAGGSTGYNPGLKSRLSISKDNSKNQVSLSVSSVTTEDSATYYCGTVHQRTQPKQTCPNGYSDDSALRYYSRCSDRDCWRCTGTTYYDTCQCSSYTYIHTYELYVDAWGQGLLVTVSS VL: QAVLTQPSSVSGSLGQRVSITCSGSSSNVGNGYVSWYQLIPGSAPRTLIYGDTSRASGVPDRFSGSRSGNTATLTISSLQAEDEADYFCASPEDSSSNAVFGSGTTLTVL : 95

Briefly, competition value measured for NC-Cow5 (antibody) VH: QVQLQESGPSLVKPSQTLSLTCMVSGFSLNDKAVGWVRQAPGKALEWLGSIDAGGSTGYNPGLKSRLSISKDNSKNQVSLSVSSVTTEDSATYYCGTVHQRTQPKQTCPNGYSDDSALRYYSRCSDRDCWRCTGTTYYDTCQCSSYTYIHTYELYVDAWGQGLLVTVSS VL: QDVLTQPSSVSGSLGQRVSITCSGSSSNVGNGYVSWYQLIPGSAPRTLIYGDTSRASGVPDRFSGSRSGNTATLTISSLQAEDEADYFCASPEDSSSNAVFGSGTTLTVL : 95

Turning to the following binder.
Briefly, competition value measured for NC-Cow7 (antibody) VH: KVQLRESGPSLVKPFETLSLTCTGSGFSLSDKAAGWVRQAPGKAPEWLGSIDTGGNTGYNPGLKYRLSITKDNSKSQVSLSVSSMTSEDSATYYCTTVHQKAYKKVCPDDYSSNPDCVRLYGWSHCDCMRDSFGGWCRADGCSSTVEIGPYEWYVNAWGQGLLVTVSS VL: QAVLTQPSSVSGSLGQRVSITCSGSSSNVGNGYVSWYQLIPGSAPRSLIYGDTSRASGVPDRFSGSRSGNTATLTISSLQAEDEADYFCASPEDSSSNGVFGSGTTLTVL : 92
